system: HepG2; experiment: cytotoxicity call (relative viability < 0.9); settings: 10 µM
The campaign covered roughly 39,000 compounds. About 3,300 (8.5%) were called active. The full list was thinned out, with actives kept by preference.
Write down the outcome that applies. Available outcomes: yes = active, no = inactive

Record excerpt, results attached:
> print(dat)
                                   structure  answer.label
 1  COc1ccc(cc1)S(=O)(=O)N1C[C@]2(C1)CN([C@@H](CO)c1c2c2ccc(cc2n1C)OC)C(=O)CN(C)C            no
 2  C[C@@H]1CN([C@@H](C)CO)C(=O)c2cccc(NS(=O)(=O)c3ccccc3)c2O[C@@H]1CN(C)Cc1ccncc1            no
 3  COc1ccc2c3c(n(c2c1)C)[C@H](CO)N(Cc1ccccc1)C[C@]13CCN(CC1)C(=O)Nc1cccc(c1)F            no
 4  COC(=O)[C@H]1C[C@@]2(C(=O)O)C[C@](C(=O)O)(C[C@@H](C(=O)OC)C2=O)C1=O            no
 5  C[C@H]1CN([C@@H](C)CO)S(=O)(=O)c2ccc(C#CCN(C)C)cc2O[C@@H]1CN(C)Cc1ccc2c(c1)OCO2            no
 6  C[C@H]1CN([C@@H](C)CO)C(=O)Cc2cc(NC(=O)Nc3ccc4c(c3)OCO4)ccc2O[C@H]1CN(C)Cc1ccc(Cl)c(Cl)c1           yes
 7  C[C@@H]1CN([C@H](C)CO)C(=O)Cc2cc(NC(=O)Nc3ccc4c(c3)OCO4)ccc2O[C@@H]1CN(C)Cc1ccc(Cl)c(Cl)c1            no
 8  CN1CCN(C(=O)C[C@@H]2C[C@H]3c4cc(NC(=O)c5ccc6c(c5)OCO6)ccc4O[C@H]3[C@@H](CO)O2)CC1            no
 9  C[C@@H]1CN([C@@H](C)CO)C(=O)c2cccc(NC(=O)Nc3ccc(C(F)(F)F)cc3)c2O[C@@H]1CN(C)Cc1ccc(-c2ccccc2)cc1            no
10  C[C@@H]1CN([C@@H](C)CO)S(=O)(=O)c2ccc(C#Cc3ccncc3)cc2O[C@@H]1CN(C)C(=O)C1CCCCC1           yes

Data request: # lookup: test call for COCC(=O)N1CC[C@]2(CC1)CN(Cc1cccc(c1)OC)[C@@H](CO)c1c2c2ccc(cc2n1C)OC
Data returned: no

Data request: # lookup: test call for CCCC#Cc1ccc2c(c1)O[C@@H](CN(C)S(=O)(=O)c1cccc(F)c1)[C@H](C)CN([C@H](C)CO)S2(=O)=O
Data returned: no

Data request: # lookup: test call for COc1ccc2c3c(n(c2c1)C)[C@H](CO)N(C[C@]13CN(C1)S(=O)(=O)C)C(=O)CN(C)C
Data returned: no

Data request: # lookup: test call for COc1ccc(cc1)S(=O)(=O)N1CC[C@]2(CC1)CN([C@H](CO)c1c2c2ccc(cc2n1C)OC)C(=O)CN(C)C
Data returned: yes

Data request: # lookup: test call for COCC(=O)Nc1ccc2c(c1)C(=O)N(C)C[C@@H](OC)[C@H](C)CN(C(=O)Cc1ccccn1)[C@@H](C)CO2
Data returned: no

Data request: # lookup: test call for COCC(=O)N1CC[C@]2(CC1)CN([C@H](CO)c1c2c2ccc(cc2n1C)OC)C(=O)Cc1ccccc1
Data returned: yes

Data request: # lookup: test call for C[C@@H]1CN([C@H](C)CO)S(=O)(=O)c2ccc(C#Cc3ccncc3)cc2O[C@@H]1CN(C)C(=O)C1CCCCC1
Data returned: yes

Data request: # lookup: test call for COc1ccc(cc1)CN1C[C@]2(CN(C2)C(=O)Cc2ccncc2)c2c([nH]c3cc(ccc23)OC)[C@@H]1CO
Data returned: no

Data request: # lookup: test call for NCc1c(Cl)cccc1Cl
Data returned: no

Data request: # lookup: test call for C[C@H](CO)N1C[C@H](C)[C@H](CN(C)Cc2ccc(Cl)c(Cl)c2)Oc2ccc(NC(=O)Nc3ccc4c(c3)OCO4)cc2CC1=O
Data returned: yes

Data request: # lookup: test call for C[C@H](CO)N1C[C@H](C)[C@H](CN(C)C(=O)NC2CCCCC2)OCCCC[C@H](C)Oc2ccc(NC(=O)Cc3ccccc3)cc2C1=O
Data returned: no

Data request: # lookup: test call for COc1ccc(cc1)S(=O)(=O)N1CC[C@]2(CC1)CN([C@@H](CO)c1c2c2ccc(cc2n1C)OC)C(=O)CN(C)C
Data returned: no

Data request: # lookup: test call for C[C@@H]1CN([C@@H](C)CO)C(=O)c2cc(NS(=O)(=O)c3cn(C)cn3)ccc2O[C@@H]1CN(C)S(=O)(=O)c1ccc(Cl)cc1
Data returned: no

Data request: # lookup: test call for Cc1ccc2sc(N(CCCN(C)C)C(=O)c3ccc(S(=O)(=O)N(C)Cc4ccccc4)cc3)nc2c1C
Data returned: yes

Data request: # lookup: test call for C[C@H](CO)N1C[C@H](C)[C@@H](CN(C)Cc2ccc(Cl)c(Cl)c2)Oc2ccc(NC(=O)Nc3ccc4c(c3)OCO4)cc2CC1=O
Data returned: no

From: the antibiotic and cytotoxicity screens of Wong et al. (2023)
